Reference source for all entries: paper PMC7876106

biological target: TeloDNA and TRF2 complex; experiment: FP inhibition assay, TRF2 GAR binding to TeloDNA; conditions: 10 nM peptide, 5 μM oligo
Each item that follows carries a reported pIC50.
The quantity pIC50 is defined as the negative base-10 logarithm of the molar concentration.

[ask] Lab note: need pIC50 for CCc1c(C)c2cc3nc(cc4nc(cc5c(CC)c(C)c(cc1[nH]2)n5C)C(C)=C4CCC(=O)O)C(CCC(=O)O)=C3C on TeloDNA and TRF2 complex, anyone have it?
[reply] 6.00

Next, consider the following molecule.
[ask] Lab note: need pIC50 for CN(C)c1ccc(Nc2c3ccc(NC(=O)CCN4CCCC4)cc3nc3cc(NC(=O)CCN4CCCC4)ccc23)cc1 on TeloDNA and TRF2 complex, anyone have it?
[reply] 7.40

====

system: EBNA1 G4 RNA; experiment: FP assay, compound binding to EBNA1 G4 RNA
RECORDED_ENDPOINT: binding to EBNA1 G4 RNA

[ask] For the compound shown here, NCCOc1cc(C(=O)Nc2cc(OCCN)c3ccccc3n2)nc(C(=O)Nc2cc(OCCN)c3ccccc3n2)c1 , give the reported binding to EBNA1 G4 RNA.
[reply] high binding affinity

[ask] Please give the result for CN(C)c1ccc(Nc2c3ccc(NC(=O)CCN4CCCC4)cc3nc3cc(NC(=O)CCN4CCCC4)ccc23)cc1 too.
[reply] high binding affinity

====

biological target: EBNA1 G4 RNA; test: FP assay, compound binding to EBNA1 G4 RNA
Each item that follows carries a reported EC50.
Provide only the numeric value, understood in nM.

[ask] Lab note: need EC50 for NCCOc1cc(C(=O)Nc2cc(OCCN)c3ccccc3n2)nc(C(=O)Nc2cc(OCCN)c3ccccc3n2)c1 [PDS, pyridostatin] on EBNA1 G4 RNA, anyone have it?
[reply] 199

Next, consider the following compound.
[ask] Lab note: need EC50 for CN(C)c1ccc(Nc2c3ccc(NC(=O)CCN4CCCC4)cc3nc3cc(NC(=O)CCN4CCCC4)ccc23)cc1 [BRACO-19] on EBNA1 G4 RNA, anyone have it?
[reply] 227
